- Test system: Neutrophil
- ASSAY OVERVIEW: Inhibition of HOCl production in human neutrophil at 20 uM incubated for 1 hrs in presence of PMA
- Type: functional, cell-based
Activity calls are given as the source filed them. The calls are words filed in the database; no cut-off is given here.
Result category, one only: active, inactive

* CCCc1cc(=O)[nH]c(=S)[nH]1 | active
* Nc1cc2c3c(cccc3c1)C(=O)N(N)C2=O | active

Query: recorded result category for CN1CCc2nc3sc(C(=O)Nc4cccc(C#N)c4)c(N)c3cc2C1 in this test
active

What classification did COc1ccc(C(=O)Nc2ccc(-c3nnc(S)o3)cc2)cc1 end up with in this test?
inactive
